Data provenance: the supplement of paper PMC10883282

System: KHOS-NP
Experiment: relative viability vs DMSO control (72 h) (fraction); higher = more viable cells
Condition Description: 10 µM
Counter-ions that a name gives are not always drawn.
Quick rule for you: relative viability under 0.9 gets TRUE, anything else gets FALSE.

[
  {
    "Compound": "COc1cc2nccc(Oc3ccc(NC(=O)Nc4cc(C)on4)c(Cl)c3)c2cc1OC",
    "Label Value": "TRUE"
  },
  {
    "Compound": "C=CC(=O)N1CCC[C@@H](n2nc(-c3ccc(Oc4ccccc4)cc3)c3c(N)ncnc32)C1",
    "Label Value": "FALSE"
  },
  {
    "Compound": "CN1CCN(c2ccc3nc(-c4c(N)c5c(F)cccc5[nH]c4=O)[nH]c3c2)CC1",
    "Label Value": "TRUE"
  },
  {
    "Compound": "Cc1cc(Nc2ncnc3ccc(NC4=NC(C)(C)CO4)cc23)ccc1Oc1ccn2ncnc2c1",
    "Label Value": "FALSE"
  }
]

Query: Regarding Cc1cnc(Nc2ccc(OCCN3CCCC3)cc2)nc1Nc1cccc(S(=O)(=O)NC(C)(C)C)c1 , kindly confirm whether its relative viability is beneath 0.9.
Result: TRUE

Query: Regarding CNC(=O)c1cc(Oc2ccc(NC(=O)Nc3ccc(Cl)c(C(F)(F)F)c3)c(F)c2)ccn1 , kindly confirm whether its relative viability is beneath 0.9.
Result: TRUE

Query: Regarding Cc1ccc(F)c(NC(=O)Nc2ccc(-c3cccc4[nH]nc(N)c34)cc2)c1 , kindly confirm whether its relative viability is beneath 0.9.
Result: FALSE

Query: Regarding COc1cc2c(Oc3ccc4[nH]c(C)cc4c3F)ncnc2cc1OCCCN1CCCC1 , kindly confirm whether its relative viability is beneath 0.9.
Result: FALSE

Query: Regarding C=CC(=O)N1CCC([C@@H]2CCNc3c(C(N)=O)c(-c4ccc(Oc5ccccc5)cc4)nn32)CC1 , kindly confirm whether its relative viability is beneath 0.9.
Result: FALSE

Query: Regarding Cc1cc(C)c(/C=C2\C(=O)Nc3ccccc32)[nH]1 , kindly confirm whether its relative viability is beneath 0.9.
Result: FALSE

Query: Regarding O=C(Nc1cnn2ccc(N3CCC[C@@H]3c3cc(F)ccc3F)nc12)N1CC[C@H](O)C1 , kindly confirm whether its relative viability is beneath 0.9.
Result: FALSE

Query: Regarding COc1cccc2c1C(=O)c1c(O)c3c(c(O)c1C2=O)C[C@@](O)(C(=O)CO)C[C@@H]3O[C@H]1C[C@H](N)[C@H](O)[C@H](C)O1 [Doxorubicin Hydrochloride] , kindly confirm whether its relative viability is beneath 0.9.
Result: TRUE

====

System: SW982
Experiment: standardised AUC of viability dose-response curve (72 h) (fraction (0-1)); higher = less growth inhibition (more resistant)
Measure: standardised AUC
One number for each entry.

Some solved entries appear below for comparison.
[
  {
    "Input Smiles": "CCN1CCN(Cc2ccc(Nc3ncc(F)c(-c4cc(F)c5nc(C)n(C(C)C)c5c4)n3)nc2)CC1",
    "Test Target": "SW982",
    "standardised AUC": 0.734
  },
  {
    "Input Smiles": "COCc1c(-c2cc3cc(C)cc(OC)c3s2)c2c(N)ncnn2c1CN1CCNC(=O)C1",
    "Test Target": "SW982",
    "standardised AUC": 0.93
  },
  {
    "Input Smiles": "COc1c(OCCCN2CCOCC2)ccc2c1N=C(NC(=O)c1cnc(N)nc1)N1CCN=C21",
    "Test Target": "SW982",
    "standardised AUC": 0.609
  },
  {
    "Input Smiles": "CN1CCC(COc2cnc(-c3cccc(Cn4nc(-c5cccc(C#N)c5)ccc4=O)c3)nc2)CC1",
    "Test Target": "SW982",
    "standardised AUC": 0.985
  },
  {
    "Input Smiles": "C[C@@H]1CCN(C(=O)CC#N)C[C@@H]1N(C)c1ncnc2[nH]ccc12",
    "Test Target": "SW982",
    "standardised AUC": 0.993
  }
]

Dear reader, for each entry below, please note its standardised AUC.
1. CC(C)N1CCN(Cc2cnc(-c3cc(-c4cccc5[nH]ccc45)cc4[nH]ncc34)o2)CC1
2. CO[C@H]1C[C@@H]2CC[C@@H](C)[C@@](O)(O2)C(=O)C(=O)N2CCCC[C@H]2C(=O)O[C@H]([C@H](C)C[C@@H]2CC[C@@H](OP(C)(C)=O)[C@H](OC)C2)CC(=O)[C@H](C)/C=C(\C)[C@@H](O)[C@@H](OC)C(=O)[C@H](C)C[C@H](C)/C=C/C=C/C=C/1C
3. C[C@@H]1COCCN1c1cc(-c2ccnn2C)c2ccnc(-c3ccn[nH]3)c2n1

Result:
[0.916, 0.729, 0.615]

====

Test system: HT1080
Experiment: relative viability vs DMSO control (72 h) (fraction); higher = more viable cells
Condition Description: 0.1235 µM
Please provide measured relative viability for the entries that follow.
Give bare numbers.

Some solved entries appear below for comparison.
[
  {
    "Compound": "CC[C@H](Nc1ncnc2[nH]cnc12)c1nc2cccc(F)c2c(=O)n1-c1ccccc1 [Idelalisib]",
    "Test Target": "HT1080",
    "Measure": "relative viability",
    "Endpoint Value": 1.09
  },
  {
    "Compound": "CNC(=O)c1cc(Oc2ccc(NC(=O)Nc3ccc(Cl)c(C(F)(F)F)c3)c(F)c2)ccn1 [Regorafenib]",
    "Test Target": "HT1080",
    "Measure": "relative viability",
    "Endpoint Value": 1.1
  },
  {
    "Compound": "CC1(C)CNc2cc(NC(=O)c3cccnc3NCc3ccncc3)ccc21 [Motesanib]",
    "Test Target": "HT1080",
    "Measure": "relative viability",
    "Endpoint Value": 1.02
  },
  {
    "Compound": "CCc1cc2c(cc1N1CCC(N3CCOCC3)CC1)C(C)(C)c1[nH]c3cc(C#N)ccc3c1C2=O [Alectinib]",
    "Test Target": "HT1080",
    "Measure": "relative viability",
    "Endpoint Value": 1.08
  },
  {
    "Compound": "Cc1nc(-c2cn3c(n2)-c2ccc(-c4cnn(C(C)(C)C(N)=O)c4)cc2OCC3)n(C(C)C)n1 [Taselisib]",
    "Test Target": "HT1080",
    "Measure": "relative viability",
    "Endpoint Value": 1.03
  }
]

Consider now this further compound.
Query: # input compound: Cn1cnc2c(F)c(Nc3ccc(Br)cc3F)c(C(=O)NOCCO)cc21 [Binimetinib] ; wanted: its relative viability
Result: 0.752

====

Please provide measured relative viability for the entries that follow.
Test system: SW684
Experiment: relative viability vs DMSO control (72 h) (fraction); higher = more viable cells
Condition Description: 10 µM
Answers are plain numbers.

[
  {
    "Input Smiles": "COc1cc2nccc(Oc3ccc(NC(=O)Nc4cc(C)on4)c(Cl)c3)c2cc1OC",
    "Endpoint Value": 0.918
  }
]

Dear reader, for each entry below, please note its relative viability.
1. O=C(Nc1cnn2ccc(N3CCC[C@@H]3c3cc(F)ccc3F)nc12)N1CC[C@H](O)C1
2. CC1(C)CNc2cc(NC(=O)c3cccnc3NCc3ccncc3)ccc21
3. Nc1cc(C(F)(F)F)c(-c2cc(N3CCOCC3)nc(N3CCOCC3)n2)cn1
4. CC(C)N1CCN(Cc2cnc(-c3cc(-c4cccc5[nH]ccc45)cc4[nH]ncc34)o2)CC1
5. Cc1cnc(Nc2ccc(OCCN3CCCC3)cc2)nc1Nc1cccc(S(=O)(=O)NC(C)(C)C)c1

Result:
[1.1, 0.859, 0.282, 0.444, 0.0027]

====

Tested on: SK-ES-1
Experiment: relative viability vs DMSO control (72 h) (fraction); higher = more viable cells
Condition Description: 10 µM
Quick rule for you: relative viability under 0.5 gets Criterion met, anything else gets Criterion not met.

Example entries begin here.
[
  {
    "Input Smiles": "Cc1cnc(Nc2ccc(OCCN3CCCC3)cc2)nc1Nc1cccc(S(=O)(=O)NC(C)(C)C)c1",
    "Label Value": "Criterion met"
  },
  {
    "Input Smiles": "CNC(=O)c1cc(Oc2ccc(NC(=O)Nc3ccc(Cl)c(C(F)(F)F)c3)c(F)c2)ccn1",
    "Label Value": "Criterion not met"
  },
  {
    "Input Smiles": "CCCS(=O)(=O)Nc1ccc(F)c(C(=O)c2c[nH]c3ncc(-c4ccc(Cl)cc4)cc23)c1F",
    "Label Value": "Criterion not met"
  },
  {
    "Input Smiles": "Cc1cc(C)c(/C=C2\\C(=O)Nc3ccccc32)[nH]1",
    "Label Value": "Criterion not met"
  },
  {
    "Input Smiles": "CCc1cc2c(cc1N1CCC(N3CCOCC3)CC1)C(C)(C)c1[nH]c3cc(C#N)ccc3c1C2=O",
    "Label Value": "Criterion not met"
  }
]

Query: Regarding Cc1cc(Nc2ncnc3ccc(NC4=NC(C)(C)CO4)cc23)ccc1Oc1ccn2ncnc2c1 , kindly confirm whether its relative viability is beneath 0.5.
Result: Criterion not met

Query: Regarding O=C(Cc1ccc(-c2ccc(OCCN3CCOCC3)cc2)cn1)NCc1ccccc1 , kindly confirm whether its relative viability is beneath 0.5.
Result: Criterion met

Query: Regarding COCc1c(-c2cc3cc(C)cc(OC)c3s2)c2c(N)ncnn2c1CN1CCNC(=O)C1 , kindly confirm whether its relative viability is beneath 0.5.
Result: Criterion met

Query: Regarding C=CC(=O)N1CCC([C@@H]2CCNc3c(C(N)=O)c(-c4ccc(Oc5ccccc5)cc4)nn32)CC1 , kindly confirm whether its relative viability is beneath 0.5.
Result: Criterion not met
